- Tested on: wheat glume blotch (Leptosphaeria nodorum)
- ASSAY_REMARKS: Efficacy test on wheat glume blotch, spray treatment and prevention test (Test Example 8)
- Assay type: in vivo
- CONDITION_PARAMETERS: single compound 3 ppm; spray; lesion area ratio
OBSERVATION_TYPE: Preventive value
Respond with the number and no other words.

COMPOUND: CC(C)O/N=C(/CNC(=O)c1ccccc1C(F)(F)F)c1ncc(Cl)cc1Cl
VALUE: 40
//
COMPOUND: CCC(C)ON=C(CNC(=O)c1cn(C)nc1C(F)F)c1ncc(C#CC2CC2)cc1Cl (mixture of isomers)
VALUE: 75

Now for the compound whose Preventive value we want.
Prompt line: Param readout = Preventive value; param system = wheat glume blotch (Leptosphaeria nodorum); param query = COc1c(Cl)cnc(C(CNC(=O)c2ccccc2C(F)(F)F)=NOC(C)C)c1Cl ; response: value
Response line: 60

###

Preventive value overview
- Tested on: cucumber gray mold fungus (Botrytis cinerea)
- ASSAY_REMARKS: Preventive test against gray mold on cucumber cotyledon leaves, spray treatment, preventive value and Colby expected value (Test Examples 1-4)
- Format: in vivo
- CONDITION_PARAMETERS: Test Example 3; single compound, 3 ppm spray

Solved cases (3 shown):
MOLECULAR_STRING: CON=C(CNC(=O)c1cn(C)nc1C(F)F)c1ncc(C#CC(C)(C)C)cc1Cl
Preventive value: 77

MOLECULAR_STRING: O=C(NCC(=NOCC(F)(F)F)c1ncc(Cl)cc1Cl)c1ccccc1C(F)(F)F
Preventive value: 45

MOLECULAR_STRING: CON=C(CNC(=O)c1ccccc1C(F)(F)F)c1ncc(C#CC2CC2)cc1Cl
Preventive value: 80

Next up:
Prompt line: Any idea what its Preventive value is? The compound is CC(C)ON=C(CNC(=O)c1ccccc1C(F)(F)F)c1ncc(C(F)(F)F)cc1Cl
Response line: 75

###

Recorded Preventive value, one value per entry.
- System: cucumber downy mildew (Pseudoperenospora cubensis)
- ASSAY_REMARKS: Efficacy test on cucumber downy mildew, spray treatment and prevention test (Test Example 7)
- Format: in vivo
- CONDITION_PARAMETERS: single compound 250 ppm; lesion area ratio
No unit in the answer, only the number.

Examples from the recorded data:
COMPOUND: O=C(NCC(=NOCC(F)(F)F)c1ncc(Cl)cc1Cl)c1ccccc1C(F)(F)F
VALUE: 0

COMPOUND: CC(C)ON=C(CNC(=O)c1ccccc1C(F)(F)F)c1ncc(Cl)c(S(C)(=O)=O)c1Cl
VALUE: 0

COMPOUND: CCC(C)ON=C(CNC(=O)c1cn(C)nc1C(F)F)c1ncc(C#CC2CC2)cc1Cl (mixture of isomers)
VALUE: 0

COMPOUND: CC#Cc1cnc(/C(CNC(=O)c2cn(C)nc2C(F)F)=N\OC(C)C)c(Cl)c1
VALUE: 5

COMPOUND: CON=C(CNC(=O)c1ccccc1C(F)(F)F)c1ncc(C#CC2CC2)cc1Cl
VALUE: 0

COMPOUND: CC(C)O/N=C(/CNC(=O)c1cn(C)nc1C(F)F)c1ncc(C#CC2CC2)cc1Cl
VALUE: 5

Prompt line: Form field: reported Preventive value of CC(C)ON=C(CNC(=O)c1ccccc1C(F)(F)F)c1ncc(C(F)(F)F)cc1Cl
Response line: 0

Prompt line: Queued: CON=C(CNC(=O)c1cn(C)nc1C(F)F)c1ncc(C#CC(C)(C)C)cc1Cl
Response line: 5
